- MEASURED_TARGET: FAAH (Homo sapiens, UniProt O00519)
- TEST_DESCRIPTION: Assay Method 1: FAAH assay, 3H-anandamide hydrolysis in homogenate of T84 cells or SK-N-MC cells transfected with human FAAH
- CONDITION_LABEL: average of results, > = solubility limit or highest concentration tested
Where a name gives a salt, the structure may show the parent alone.
OUTCOME_MEASURE: IC50 (nM)

A: O=C(Nc1noc2ccccc12)N1CCN(Cc2cccc(C#Cc3ccc4c(c3)OCO4)c2)CC1 [Example 89]
B: O=C(Nc1cccnn1)N1CCN(Cc2cnc3ccccc3c2)CC1 [Example 197]
Identify the item whose IC50 is the smaller number: A or B Reply briefly: the label of your chosen item.
A

I: O=C(Nc1cnccn1)N1CCN(Cc2cccc(OC(F)(F)F)c2)CC1 [Example 61, trifluoroacetic acid salt]
II: O=C(Nc1noc2ccccc12)N1CCN(Cc2cccc(C#Cc3ccccc3F)c2)CC1 [Example 66]
III: O=C(Nc1noc2ccccc12)N1CCN(Cc2ccc(OC(F)(F)F)c(F)c2)CC1 [Example 108]
IV: O=C(Nc1noc2ccccc12)N1CCN(Cc2cccc(OCc3ccccc3)c2)CC1 [Example 99]
Put the items in sequence by IC50, from largest down. Please respond with the labels ordered as the question requires.
I, III, II, IV
(I: 2300 nM, III: 140 nM, II: 24 nM, IV: 16 nM)

1: N#Cc1ccccc1COc1cccc(CN2CCN(C(=O)Nc3noc4ccccc34)CC2)c1 [Example 98]
2: O=C(Nc1nn[nH]n1)N1CCN(Cc2cccc(Oc3ccccc3Cl)c2)CC1 [Example 190]
Between the two listed entries 1 and 2 , which has its IC50 at the higher number? Reply briefly: the label of your chosen item.
2
(2: 3000 nM, 1: 22 nM)

---

- MEASURED_TARGET: FAAH (Homo sapiens, UniProt O00519)
- Sequence (O00519 1-579): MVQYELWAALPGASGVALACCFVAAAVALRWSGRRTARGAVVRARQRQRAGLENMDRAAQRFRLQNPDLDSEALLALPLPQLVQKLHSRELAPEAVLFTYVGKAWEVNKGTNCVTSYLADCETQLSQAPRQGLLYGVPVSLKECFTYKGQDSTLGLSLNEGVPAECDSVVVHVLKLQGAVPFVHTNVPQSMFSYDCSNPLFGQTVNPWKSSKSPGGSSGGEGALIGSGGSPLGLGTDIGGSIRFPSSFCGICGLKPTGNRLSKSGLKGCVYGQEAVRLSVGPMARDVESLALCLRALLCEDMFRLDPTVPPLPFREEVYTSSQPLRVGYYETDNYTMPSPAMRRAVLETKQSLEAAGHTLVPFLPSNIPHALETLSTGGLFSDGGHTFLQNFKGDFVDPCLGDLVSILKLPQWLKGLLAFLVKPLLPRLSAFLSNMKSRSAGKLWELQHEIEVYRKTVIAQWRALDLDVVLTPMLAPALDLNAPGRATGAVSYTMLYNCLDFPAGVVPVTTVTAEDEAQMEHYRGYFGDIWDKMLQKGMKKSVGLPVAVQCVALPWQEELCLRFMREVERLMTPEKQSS
- TEST_DESCRIPTION: Assay Method 1: FAAH assay, 3H-anandamide hydrolysis in homogenate of T84 cells or SK-N-MC cells transfected with human FAAH
- CONDITION_LABEL: average of results, > = solubility limit or highest concentration tested
Where a name gives a salt, the structure may show the parent alone.
OUTCOME_MEASURE: IC50 (nM)

1: O=C(Nc1nn[nH]n1)N1CCN(Cc2cccc(Oc3ccccc3)c2)CC1 [Example 181]
2: COc1ccccc1C#Cc1cccc(CN2CCN(C(=O)Nc3noc4ccccc34)CC2)c1 [Example 65]
Identify the item whose IC50 is the smaller number: 1 or 2 Reply briefly: the label of your chosen item.
2
(2: 395 nM, 1: 5000 nM)

P: O=C(Nc1cccc2nsnc12)N1CCN(Cc2cccc(Oc3cc(Cl)cc(Cl)c3)c2)CC1 [Example 39, trifluoroacetic acid salt]
Q: N#Cc1c(F)cccc1C#Cc1cccc(CN2CCN(C(=O)Nc3noc4ccccc34)CC2)c1 [Example 91]
R: O=C(Nc1ccon1)N1CCN(Cc2cccc(Oc3ccc4c(c3)OC(F)(F)O4)c2)CC1 [Example 141]
Arrange items by their IC50 values in increasing order. Please respond with the labels ordered as the question requires.
Q, R, P

---

- MEASURED_TARGET: FAAH (Homo sapiens)
- Sequence (O00519 1-579): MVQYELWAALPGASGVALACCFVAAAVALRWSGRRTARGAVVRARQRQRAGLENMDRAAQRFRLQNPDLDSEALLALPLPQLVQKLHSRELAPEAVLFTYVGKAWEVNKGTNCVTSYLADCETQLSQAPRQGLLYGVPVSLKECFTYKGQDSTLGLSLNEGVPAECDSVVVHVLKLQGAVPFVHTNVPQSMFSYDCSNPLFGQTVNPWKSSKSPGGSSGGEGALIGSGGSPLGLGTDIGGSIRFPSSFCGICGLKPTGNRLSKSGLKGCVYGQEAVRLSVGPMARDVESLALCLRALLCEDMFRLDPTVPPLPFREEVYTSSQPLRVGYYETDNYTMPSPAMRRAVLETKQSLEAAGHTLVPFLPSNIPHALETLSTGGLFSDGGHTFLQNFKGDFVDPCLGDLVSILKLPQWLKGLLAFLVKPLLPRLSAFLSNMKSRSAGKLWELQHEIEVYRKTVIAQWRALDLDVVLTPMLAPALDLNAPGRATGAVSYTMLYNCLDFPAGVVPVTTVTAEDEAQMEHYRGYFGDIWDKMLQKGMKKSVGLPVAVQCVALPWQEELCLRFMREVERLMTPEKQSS
- TEST_DESCRIPTION: Assay Method 1: FAAH assay, 3H-anandamide hydrolysis in homogenate of T84 cells or SK-N-MC cells transfected with human FAAH
- Assay type: biochemical
- CONDITION_LABEL: average of results, > = solubility limit or highest concentration tested
Where a name gives a salt, the structure may show the parent alone.
OUTCOME_MEASURE: IC50 (nM)

INSERT INTO assay_data (compound, readout_number) VALUES
  ('O=C(Nc1noc2ccccc12)N1CCN(Cc2cccc(Oc3ccc(F)cc3)c2)CC1 [Example 208]', 21);

P: O=C(Nc1ccon1)N1CCC(Cc2cccc(C(F)(F)F)c2)CC1 [Example 26]
Q: O=C(Nc1ccc2nn[nH]c2c1)N1CCN(Cc2ccc3c(c2)OC(F)(F)O3)CC1 [Example 6, trifluoroacetic acid salt]
R: O=C(Nc1noc2ccccc12)N1CCN(Cc2ccc3c(c2)OC(F)(F)O3)CC1 [Example 1, trifluoroacetic acid salt]
S: O=C(Nc1nnn[nH]1)N1CCC(Cc2ccc3ccccc3c2)CC1 [Example 13]
Put the items in sequence by IC50, from largest down. Please respond with the labels ordered as the question requires.
P, Q, R, S
(P: 5000 nM, Q: 308 nM, R: 103 nM, S: 5 nM)

I: O=C(Nc1noc2ccccc12)N1CCN(Cc2ccc3cn[nH]c3c2)CC1 [Example 101]
II: O=C(Nc1cnccn1)N1CCN(Cc2cnc3ccccc3c2)CC1 [Example 224]
Identify the item whose IC50 is the smaller number: I or II Reply briefly: the label of your chosen item.
II

a: O=C(Nc1noc2ccccc12)N1CCN(Cc2cccc(C#Cc3ccccc3Cl)c2)CC1 [Example 72]
b: O=C(Nc1noc2ccccc12)N1CCN(Cc2cccc(C#Cc3ccc(Cl)c(Cl)c3)c2)CC1 [Example 75]
Between the two listed entries a and b , which has its IC50 at the higher number? Reply briefly: the label of your chosen item.
b
(b: 123 nM, a: 24 nM)
